test: mn = molality of the nth substance listed, in mol/kg; details: 298.15 K; 101.3 kPa; Liquid; Capillary tube (Ostwald / Ubbelohde) method; m1 = 0.0797
OBSERVABLE: viscosity (mPa·s)

>>> assay_result("OC[C@@H](O)[C@H](O)[C@H](O)[C@@H](O)CO [dulcitol] + O")
0.919
>>> assay_result("OC[C@H]1OC(O)C[C@@H](O)[C@@H]1O (stereo partly drawn) [2-deoxy-D-glucose] + O")
0.919
>>> assay_result("O=C[C@H](O)[C@@H](O)[C@H](O)CO [D-xylose] + O")
0.914
>>> assay_result("O=C[C@H](O)[C@@H](O)[C@H](O)[C@H](O)CO [D-glucose] + O")
0.924

====

test: mn = molality of the nth substance listed, in mol/kg; conditions: 308.15 K; 101.3 kPa; Liquid; Capillary tube (Ostwald / Ubbelohde) method; m1 = 0.0797
OBSERVABLE: viscosity (mPa·s)

>>> assay_result("O=C[C@H](O)[C@@H](O)[C@H](O)CO [D-xylose] + O")
0.739
>>> assay_result("OC[C@H]1OC(O)C[C@@H](O)[C@@H]1O (stereo partly drawn) [2-deoxy-D-glucose] + O")
0.742
>>> assay_result("O=C[C@H](O)[C@@H](O)[C@H](O)[C@H](O)CO [D-glucose] + O")
0.744
>>> assay_result("OC[C@@H](O)[C@H](O)[C@H](O)[C@@H](O)CO [dulcitol] + O")
0.741

====

test: mn = molality of the nth substance listed, in mol/kg; details: 288.15 K; 101.3 kPa; Liquid; Capillary tube (Ostwald / Ubbelohde) method; m1 = 0.0797
OBSERVABLE: viscosity (mPa·s)

>>> assay_result("OC[C@@H](O)[C@H](O)[C@H](O)[C@@H](O)CO [dulcitol] + O")
1.183
>>> assay_result("O=C[C@H](O)[C@@H](O)[C@H](O)[C@H](O)CO [D-glucose] + O")
1.181
>>> assay_result("O=C[C@H](O)[C@@H](O)[C@H](O)CO [D-xylose] + O")
1.173
>>> assay_result("OC[C@H]1OC(O)C[C@@H](O)[C@@H]1O (stereo partly drawn) [2-deoxy-D-glucose] + O")
1.18

====

test: mn = molality of the nth substance listed, in mol/kg; details: 318.15 K; 101.3 kPa; Liquid; Capillary tube (Ostwald / Ubbelohde) method; m1 = 0.0797
OBSERVABLE: viscosity (mPa·s)

>>> assay_result("O=C[C@H](O)[C@@H](O)[C@H](O)[C@H](O)CO [D-glucose] + O")
0.614
>>> assay_result("O=C[C@H](O)[C@@H](O)[C@H](O)CO [D-xylose] + O")
0.61
>>> assay_result("OC[C@@H](O)[C@H](O)[C@H](O)[C@@H](O)CO [dulcitol] + O")
0.61
>>> assay_result("OC[C@H]1OC(O)C[C@@H](O)[C@@H]1O (stereo partly drawn) [2-deoxy-D-glucose] + O")
0.615
